- Measured target: PDGFRalpha(V561D) (Homo sapiens, UniProt P16234, V561D)
- Construct: recombinant human PDGFRalpha, amino acids 550end containing the V561 D mutation; 6His (N)
- Sequence (P16234 550-1089 V561D): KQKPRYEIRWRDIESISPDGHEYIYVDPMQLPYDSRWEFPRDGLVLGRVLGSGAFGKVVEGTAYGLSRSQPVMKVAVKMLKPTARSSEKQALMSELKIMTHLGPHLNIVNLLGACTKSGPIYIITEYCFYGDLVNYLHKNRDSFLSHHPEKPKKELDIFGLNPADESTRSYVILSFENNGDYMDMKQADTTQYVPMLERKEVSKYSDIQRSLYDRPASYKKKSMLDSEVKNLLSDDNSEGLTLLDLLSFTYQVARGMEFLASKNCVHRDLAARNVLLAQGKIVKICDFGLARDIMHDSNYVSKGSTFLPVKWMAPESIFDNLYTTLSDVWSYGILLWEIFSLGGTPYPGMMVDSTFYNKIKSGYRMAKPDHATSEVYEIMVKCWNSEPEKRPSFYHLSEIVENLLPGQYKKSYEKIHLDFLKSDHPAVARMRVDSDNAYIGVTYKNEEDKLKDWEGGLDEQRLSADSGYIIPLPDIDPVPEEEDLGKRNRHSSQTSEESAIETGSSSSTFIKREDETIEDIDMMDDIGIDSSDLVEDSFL
- Measurement protocol: PDGFRalpha(V561D) assay
- Applied conditions: recombinant human PDGFRalpha aa 550-end, 200 μM ATP, 1.4E-06 means 1.4×10^−6, read-out: Inhibition (IC50) of PDGFRα (V561D)
- Protocol: PDGFRalpha(V561D) (N-terminal 6His-tagged, recombinant human PDGFRalpha, amino acids 550end containing the V561 D mutation) is incubated with 8 mM MOPS pH 7.0, 0.2 mM EDTA, 250 μM GGMEDIYEFMGGKKK, 10 mM MgAcetate and [gamma-33P-ATP] (specific activity approx. 500 cpm/pmol, concentration 200 μM). The reaction is initiated by the addition of the MgATP mix. After incubation for 40 minutes at room temperature, the reaction is stopped by the addition of 3% phosphoric acid solution. […]
Observable: IC50
Could you kindly put the unit after your number?

Please review the entries below; each comes with its answer.
Prompt: Please supply the value of reported IC50 for the item CN(C)C[C@H]1CCN(C(=O)c2ccc(-n3cc(-c4cc5cc(F)c(F)cc5[nH]c4=O)nn3)cc2)C1
Response: 680 nM

Prompt: Please supply the value of reported IC50 for the item COCCOC[C@@H]1CCN(C(=O)c2ccc(-n3cc(-c4cc5cc(F)c(F)cc5[nH]c4=O)nn3)cc2)C1
Response: 410 nM

Prompt: Please supply the value of reported IC50 for the item COCCN(C)C(=O)c1ccc(-n2cc(-c3cc4cc(F)c(F)cc4[nH]c3=O)nn2)cc1
Response: 160 nM

Prompt: Please supply the value of reported IC50 for the item O=C(c1ccc(-n2cc(-c3cc4cc(F)c(F)cc4[nH]c3=O)nn2)cc1)C1CCNCC1
Response: 18 nM

Prompt: Please supply the value of reported IC50 for the item CC(=O)N(C)c1ccc(-n2cc(-c3cc4cc(F)c(F)cc4[nH]c3=O)nn2)cc1
Response: 440 nM

Prompt: Please supply the value of reported IC50 for the item CN1CCN(C(=O)C2CCCN2C(=O)c2ccc(-n3cc(-c4cc5cc(F)ccc5[nH]c4=O)nn3)cc2)CC1 (stereo not shown)
Response: 10 nM

Would you kindly look at the next entry?
Prompt: Please supply the value of reported IC50 for the item CN1CCN(C(=O)c2ccc(-n3cc(-c4cc5cc(F)ccc5[nH]c4=O)cn3)cc2)CC1
Response: 14 nM
